# ASSAYED_SYSTEM: T1, Anti-HBsAg antibody(g)
# T1 construct: also called anti-HBsAg antibodies from goats; goat IgG (HBsAg)
# ASSAY_INFO: labelled peptide on antibody immobilised on microplate; antigen HBsAg
Ends that are not written are not given here. FAM = carboxyfluorescein (FAM) fluorescent label
fluorescence intensity in solution (S) before antigen binding listing for selected binders.

1. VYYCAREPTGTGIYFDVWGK (not fully specified (N-terminus), Synthetic 20-mer homologous to the FR3 or FR4 region of the heavy chain; The label differs between experiments; also called H2 switching peptide; fourth peptide compound H2) [H2 peptide] :: 1780
2. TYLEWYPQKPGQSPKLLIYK (not fully specified (N-terminus), Synthetic 20-mer homologous to the FR2 region of the light chain; The label differs between experiments; also called L1 switching peptide; first peptide compound L1) [L1 peptide] :: 2780
3. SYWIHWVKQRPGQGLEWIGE (not fully specified (N-terminus), Synthetic 20-mer homologous to the FR2 region of the heavy chain; The fluorescent label differs between experiments; also called H1 switching peptide; third peptide compound H1) [H1 peptide] :: 2240

Now let's try a different one.
Record summary for {FAM}-VYYCFQGSHVPFTK (Synthetic 14-mer homologous to the FR3 or FR4 region of the light chain; also called L2 switching peptide; second peptide compound L2) [L2 peptide] : reported fluorescence intensity in solution (S) before antigen binding = 2280
